Provenance of the data: patent US5358951A

Test system: vasopressor response of angiotensin II
Assay: AII Challenge: antagonism of angiotensin II vasopressor response
Type: in vivo
Conditions: Rattus norvegicus, iv, 2 h, 3 mg/kg I.V.; AII 0.05 mcg/kg IV; 120 min post dose
Rule: Met for inhibition in vivo at 3 mg/kg not less than 70%, Not met for anything less.

Worked set:
compound="CCCCc1nc2ccc([C@H]3C[C@]4(C)CCCCN4O3)cc2c(=O)n1Cc1ccc(-c2ccccc2-c2nnn[nH]2)cc1 (relative stereo) [Example 65]" assigned_label=Met
compound="CCCCc1nc2ccc([C@@H]3C[C@H]4CCCCN4O3)cc2c(=O)n1Cc1ccc(-c2ccccc2-c2nnn[nH]2)cc1 (relative stereo) [Example 60]" assigned_label=Met

Reported inhibition in vivo at 3 mg/kg at or above 70%? CCCCc1nc2ccc(C3ON4CCCC4C3C(=O)OCC)cc2c(=O)n1Cc1ccc(-c2ccccc2-c2nnn[nH]2)cc1 (stereo not shown) [Example 62] Not met

Reported inhibition in vivo at 3 mg/kg at or above 70%? CCCCc1nc2ccc([C@@H]3C[C@H]4CCCN4O3)cc2c(=O)n1Cc1ccc(-c2ccccc2-c2nnn[nH]2)cc1 (racemic) [Example 57] Not met

Reported inhibition in vivo at 3 mg/kg at or above 70%? CCCCc1nc2ccc([C@@]3(C)C[C@@H]4CCCCN4O3)cc2c(=O)n1Cc1ccc(-c2ccccc2-c2nnn[nH]2)cc1 (relative stereo) [Example 67] Met

Reported inhibition in vivo at 3 mg/kg at or above 70%? CCCCc1nc2ccc([C@]3(C)C[C@@H]4CCC(C)(C)N4O3)cc2c(=O)n1Cc1ccc(-c2ccccc2-c2nnn[nH]2)cc1 (relative stereo) [Example 69] Met

Reported inhibition in vivo at 3 mg/kg at or above 70%? CCCCc1nc2ccc([C@]3(C)C[C@@H]4CCCCN4O3)cc2c(=O)n1Cc1ccc(-c2ccccc2-c2nnn[nH]2)cc1 (relative stereo) [Example 68] Met

###

Test system: vasopressor response of angiotensin II
Experiment: AII Challenge: antagonism of angiotensin II vasopressor response
Type: in vivo
Conditions: Rattus norvegicus, po, 5 h, 5 mg/kg P.O.; AII 0.1 mcg/kg IV; 300 min post dose
property: inhibition in vivo at 5 mg/kg (%)
Answer in %, number only, no unit symbol.

compound="CCCCc1nc2ccc([C@]3(C)C[C@@H]4CCCN4O3)cc2c(=O)n1Cc1ccc(-c2ccccc2-c2nnn[nH]2)cc1 (relative stereo)" output_unit=% numeric_readout=77
compound="CCCCc1nc2ccc([C@@]3(C)C[C@@H]4CCCN4O3)cc2c(=O)n1Cc1ccc(-c2ccccc2-c2nnn[nH]2)cc1 (relative stereo)" output_unit=% numeric_readout=84
compound="CCCCc1nc2ccc([C@@]3(C)C[C@@H]4CCC(C)(C)N4O3)cc2c(=O)n1Cc1ccc(-c2ccccc2-c2nnn[nH]2)cc1 (relative stereo)" output_unit=% numeric_readout=77

Could you now look at the following compound, please?
Look up vasopressor response of angiotensin II data: inhibition in vivo at 5 mg/kg of CCCCc1nc2ccc([C@@H]3C[C@H]4CCCN4O3)cc2c(=O)n1Cc1ccc(-c2ccccc2-c2nnn[nH]2)cc1 (racemic) , then report it. 0

###

Target: Angiotensin II Receptor (Bos taurus, UniProt P25104)
Construct: fresh adrenal glands received on crushed ice are cleaned of fatty tissues; from tissue; host or cells: beef adrenal cortex, microsomal membranes (100,000×g pellet)
Sequence (P25104 whole entry): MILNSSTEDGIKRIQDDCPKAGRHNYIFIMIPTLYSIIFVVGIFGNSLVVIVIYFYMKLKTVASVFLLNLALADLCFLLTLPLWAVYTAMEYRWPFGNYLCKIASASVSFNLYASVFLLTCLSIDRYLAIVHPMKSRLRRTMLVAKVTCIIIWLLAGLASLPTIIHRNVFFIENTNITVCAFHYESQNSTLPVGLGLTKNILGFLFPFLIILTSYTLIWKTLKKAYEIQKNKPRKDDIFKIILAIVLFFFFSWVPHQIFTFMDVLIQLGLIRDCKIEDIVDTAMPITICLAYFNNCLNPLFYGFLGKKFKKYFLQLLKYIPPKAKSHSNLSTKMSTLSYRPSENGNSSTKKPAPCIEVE
Experiment: Receptor Binding Assay: displacement of [^125 I](Sar^1,Ile^8)AngII
Assay type: beef (adrenal cortex microsomal membranes)
Conditions: continuation of Table I headed BIOLOGICAL DATA; read-out: Biological Data
Protocol: Beef adrenals are obtained from a local slaughter house (Maxwell-Cohen). [^125 […]. 2200 Ci/mmole, is purchased from Dupont (NEN®, Boston, Mass.). […] A 100 ul aliquot is withdrawn and the protein content of the preparation is determined by the Lowry's method (Lowry, O. H., Rosebrough, […]. and Randall, R. J., Protein measurement with Folin phenol reagent. J. Biol. Chem., 48, 265-275, 1951). […] The filters are removed from the filter grid and counted in a Parkard® Cobra Gamma Counter for 1 min. […]
Structures can show the parent of a compound that is named as a salt.
We begin with a simple list: items and their reported IC50.
Answer in nM, number only, no unit symbol.

compound="CCCCc1nc2ccc([C@@]3(C)C[C@@H]4CCCN4O3)cc2c(=O)n1Cc1ccc(-c2ccccc2-c2nnn[nH]2)cc1 (relative stereo) [Example 73, sodium salt]" numeric_readout=31

Could you now look at the following compound, please?
Answer with the recorded IC50 for the compound listed here: CCCCc1nc2ccc(C3(C(=O)OC)CC4CCCN4O3)cc2c(=O)n1Cc1ccc(-c2ccccc2-c2nnn[nH]2)cc1 (mixture of isomers) 144
